Values from ChEMBL document CHEMBL2321839

System: Mus musculus
test method notes: Antiepileptic activity in Swiss albino mouse assessed as protection against maximal-electric shock-induced seizures at 300 mg/kg, ip measured after 0.5 hrs
Type: functional, organism-based
Design: dose 300 mg/kg
Activity calls are given as the source filed them. The rule behind the calls is not given here.
endpoint label: Activity

molecule=CC(C)=CC/C=C(/C)C/C=N/NC(=O)Nc1nnc(-c2ccccc2)o1 endpoint_label=Activity endpoint_result=inactive
molecule=CC(C)=CC/C=C(/C)C/C=N/NC(=O)Nc1nnc(-c2ccccc2O)o1 endpoint_label=Activity endpoint_result=inactive
molecule=CC(C)=CC/C=C(/C)C/C=N/NC(=O)Nc1nnc(-c2cccc(O)c2)o1 endpoint_label=Activity endpoint_result=inactive
molecule=C=C(C)[C@@H]1CC=C(C)/C(=N/NC(=O)Nc2nnc(-c3ccccc3)o2)C1 endpoint_label=Activity endpoint_result=inactive
molecule="CCC1(C)CC(=O)NC1=O (stereo not drawn) [ETHOSUXIMIDE]" endpoint_label=Activity endpoint_result=inactive
molecule=C=C(C)[C@@H]1CC=C(C)/C(=N/NC(=O)Nc2nnc(-c3cccc(O)c3)o2)C1 endpoint_label=Activity endpoint_result=inactive
molecule=C=C(C)[C@@H]1CC=C(C)/C(=N/NC(=O)Nc2nnc(-c3ccccc3O)o2)C1 endpoint_label=Activity endpoint_result=inactive
molecule=C=C(C)[C@@H]1CC=C(C)/C(=N/NC(=O)Nc2nnc(-c3ccc(OC)cc3)o2)C1 endpoint_label=Activity endpoint_result=inactive

====

Test system: Rattus norvegicus
test method notes: Neurotoxicity in Wistar rat at 30 mg/kg, po measured at 0.5 hrs by rotarod test
Format: toxicity, organism-based
Design: dose 30 mg/kg, route oral
experimental setup: in vivo
endpoint label: Activity

structure_smiles_string=C=C(C)[C@@H]1CC=C(C)/C(=N/NC(=O)Nc2nnc(-c3ccc([N+](=O)[O-])cc3)o2)C1 endpoint_label=Activity endpoint_result=Non-toxic
structure_smiles_string=O=C1NC(=O)C(c2ccccc2)(c2ccccc2)N1 endpoint_label=Activity endpoint_result=Non-toxic
structure_smiles_string=C=C(C)[C@@H]1CC=C(C)/C(=N/NC(=O)Nc2nnc(-c3ccc(F)cc3)o2)C1 endpoint_label=Activity endpoint_result=Non-toxic
structure_smiles_string=CC(C)=CC/C=C(/C)C/C=N/NC(=O)Nc1nnc(-c2ccc([N+](=O)[O-])cc2)o1 endpoint_label=Activity endpoint_result=Non-toxic
structure_smiles_string=C=C(C)[C@@H]1CC=C(C)/C(=N/NC(=O)Nc2nnc(-c3ccc(O)cc3)o2)C1 endpoint_label=Activity endpoint_result=Non-toxic

====

Test system: Rattus norvegicus
test method notes: Neurotoxicity in Wistar rat at 30 mg/kg, po measured at 2 hrs by rotarod test
Type: toxicity, organism-based
Set-up: dose 30 mg/kg, route oral
experimental setup: in vivo
endpoint label: Activity

structure_smiles_string=C=C(C)[C@@H]1CC=C(C)/C(=N/NC(=O)Nc2nnc(-c3ccc(O)cc3)o2)C1 endpoint_result=0%
structure_smiles_string=C=C(C)[C@@H]1CC=C(C)/C(=N/NC(=O)Nc2nnc(-c3ccc(F)cc3)o2)C1 endpoint_result=Non-toxic
structure_smiles_string=C=C(C)[C@@H]1CC=C(C)/C(=N/NC(=O)Nc2nnc(-c3ccc([N+](=O)[O-])cc3)o2)C1 endpoint_result=Non-toxic
structure_smiles_string=CC(C)=CC/C=C(/C)C/C=N/NC(=O)Nc1nnc(-c2ccc([N+](=O)[O-])cc2)o1 endpoint_result=Non-toxic
structure_smiles_string=O=C1NC(=O)C(c2ccccc2)(c2ccccc2)N1 endpoint_result=Non-toxic
